Values from PubChem BioAssay AID1159580

MEASUREMENT_NOTES: chemical genetic growth profiling, strain panel (AID 1159580);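 also: tested at 20 µM; growth read once vehicle control cultures reached saturation at 30 °C; lower values mean less growth of the strain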
PROTOCOL_CONDITIONS: S. cerevisiae deletion strains, growth OD, locus YDR054C, strain cdc34
In all, about 5,500 compounds went through this assay and about 2,000 (36%) were called active. About 18% were inconclusive and are not listed. Rule as the data show it: active = normalized growth mostly below about 0.91 (no sharp cut-off); inconclusive = no clear call, values can overlap the other calls; inactive = mostly above about 0.92. The list shows a part of the results.
The reply should be one of these categories: True for active, False for inactive

Check out these entries, answers already filled in.
# STRUCTURE_AS_SMILES, CATEGORY_LABEL
rows = [
    ("CN(C)c1nc(=S)ss1", "True"),
    ("O=C(O)c1cccc2cccc(C(=O)O)c12", "True"),
    ("O=C(Nc1ccc(OC(F)(F)F)cc1)Nc1cncc(C(F)(F)F)c1", "False"),
]

Query: Record lookup: outcome of this test for Cc1ccc(C(=O)Nc2ccc3ccccc3n2)cc1 ?
Reply: False

Query: Record lookup: outcome of this test for N#CC(C#N)=NNc1ccc(C(F)(F)F)cc1 ?
Reply: True

Query: Record lookup: outcome of this test for N#CC(C#N)=NNc1cc(C(F)(F)F)ccc1OCC(F)(F)F ?
Reply: False

* * *

MEASUREMENT_NOTES: chemical genetic growth profiling, strain panel (AID 1159580);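 also: tested at 20 µM; growth read once vehicle control cultures reached saturation at 30 °C; lower values mean less growth of the strain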
PROTOCOL_CONDITIONS: S. cerevisiae deletion strains, growth OD, locus YBR171W, strain sec66
In all, about 5,500 compounds went through this assay and about 2,000 (36%) were called active. Inconclusive results (about 18%) are left out. Rule as the data show it: active = normalized growth mostly below about 0.91 (no sharp cut-off); inconclusive = no clear call, values can overlap the other calls; inactive = mostly above about 0.92. The list shows a part of the results.
The reply should be one of these categories: T (active), F (inactive)

Check out these entries, answers already filled in.
# MOLECULE, CATEGORY_LABEL
measured = [
    ("CC(C)CCCC(C)[C@H]1CCC2C3CC[C@H]4CC(=O)CC[C@]4(C)C3CC[C@@]21C (some centres not stated)", "F"),
    ("Nc1ncnc2c1ncn2[C@@H]1O[C@H](CO)[C@@H](O)[C@@H]1O", "F"),
    ("CNC(=O)CSP(=S)(OC)OC", "F"),
    ("Cn1c(=O)[nH]c(=O)c2[nH]cnc21", "F"),
    ("Cc1cc(O)c2c(c1O)C(=O)c1c(O)cc(C)c(O)c1C2=O", "F"),
    ("C[C@]12CCC3C(CC[C@H]4CC(=O)CC[C@]34C)C1CCC2=O (some centres not stated)", "F"),
]

Query: Record lookup: outcome of this test for Cn1cnc([N+](=O)[O-])c1Sc1ncnc2nc[nH]c12 ?
Reply: F

Query: Record lookup: outcome of this test for COP(=S)(OC)SCn1nnc2ccccc2c1=O ?
Reply: F

Query: Record lookup: outcome of this test for Cc1cccc(N(C)C(=S)Oc2ccc3ccccc3c2)c1 ?
Reply: F

Query: Record lookup: outcome of this test for O=C1c2ccccc2C(=O)c2c1ccc(O)c2O ?
Reply: T

Query: Record lookup: outcome of this test for O=c1ccc2ccc(O)c(O)c2o1 ?
Reply: F

Query: Record lookup: outcome of this test for CCOC(=O)C1=C(C)NC(C)=C(C(=O)OC)C1c1cccc([N+](=O)[O-])c1 (configuration not stated) ?
Reply: F

Query: Record lookup: outcome of this test for COc1ccc2c(c1)[nH]c1c(C)nccc12 ?
Reply: F

Query: Record lookup: outcome of this test for COc1cc(O)c(C(C)=O)c(OC)c1 ?
Reply: F

Query: Record lookup: outcome of this test for CC(=O)OCC(=O)[C@@]1(O)CCC2C3CCC4=CC(=O)CC[C@]4(C)[C@@]3(F)[C@@H](O)C[C@@]21C (some centres not stated) ?
Reply: F

Query: Record lookup: outcome of this test for c1ccc2c(c1)[nH]c1cnccc12 ?
Reply: F

Query: Record lookup: outcome of this test for Cc1nccc2c1[nH]c1ccccc12 ?
Reply: F
